Hello, the source for this data is patent US20240392001A1, in case you need it.

target: T1, LILRB2 (UniProt Q8N423 22-460, limits assumed); assay: ELISA of phage display clone on LILRB2
T1 construct: Panning used recombinantly expressed LILRB2-His; also called Leukocyte Immunoglobulin-like Receptor subfamily B member 2; LILRB2-His
T1 sequence (Q8N423 22-460 limits assumed): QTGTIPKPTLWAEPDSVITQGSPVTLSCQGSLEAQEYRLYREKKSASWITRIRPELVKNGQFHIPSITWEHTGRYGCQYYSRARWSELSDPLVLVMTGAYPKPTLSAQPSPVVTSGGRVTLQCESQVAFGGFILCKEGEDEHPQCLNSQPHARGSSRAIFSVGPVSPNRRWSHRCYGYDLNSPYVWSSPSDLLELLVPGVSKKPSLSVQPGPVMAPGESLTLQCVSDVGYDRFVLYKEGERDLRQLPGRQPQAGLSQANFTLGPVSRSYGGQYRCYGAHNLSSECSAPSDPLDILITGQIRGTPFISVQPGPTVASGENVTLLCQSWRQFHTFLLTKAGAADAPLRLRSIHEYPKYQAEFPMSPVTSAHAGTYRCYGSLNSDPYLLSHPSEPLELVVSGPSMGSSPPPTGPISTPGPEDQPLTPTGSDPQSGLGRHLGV
MEASUREMENT_LABEL: OD450 in ELISA assay

[[record]]
binder = "NeuB2-110 (antibody, V domains shown, Human antibody from a phage library; also called 110-HC/110-LC) VH: QVQLVESGGGLVKPGGSLRLSCGISGFTFSDYYMSWIRQAPGKGLEWVSFIGTSGSTIYYADSVKGRFTISRDNANNSLFLQMNSLTVEDTAVYYCAREATSGTYFDYWGQGTLVSVSS VL: QAVVTQPASVSGSPGQSITISCTGTSSDVGGYNYVSWYQQHPGKAPKLMIYEVTNRPSGVSNRFSGSKSGNTASLTISGLQAEDEADYYCSSYTSSSTPYVFGTGTKVTVL"
obs_value = 0.972

[[record]]
binder = "NeuB2-29 (antibody, V domains shown, also called Ab29; NewuB2-29) VH: QVQLVETGGGVVQPGRSLRLSCAASGFTFSDYAMHWVRQAPGKGLEWVTLISYDGSQKYYADSVKGRFTISRDDSKNTVDLQMNSLKAEDTAVYYCAKFPSLNDNVGFDVWGQGTMVTVSS VL: QSVLTQPPSVSGAPRERVTISCSGSTSNIENNAVNWYQQLPGKAPKLLIYYDDLVPSGVSDRFSGSKSGTSASLAISGLQSGDEAYYYCAVWDDSLNGPVFGGGTKVTVL"
obs_value = 0.819

[[record]]
binder = "NeuB2-60 (antibody, V domains shown, also called Ab60; 60-HC/60-LC) VH: QVQLQESGPGLVKPSGTLSLTCAVSGGSITSSNWWSWVRQPPGKGLEWIGDISHSGSTNYNPSLKGRVTMSVDRSKNQFFLKLSSVTAADTAMYYCARAFHGMDVWGQGTTVTVSS VL: QSVLTQPPSVSEAPRQRVTISCSGSSSNIANNAVNWYQQLPGKAPKLLIYYDDLLASGVSDRFSGSRSGTSAALAISGLQSEDEADYYCATWDDDLNGPIFGGGTKVTVL"
obs_value = 0.744

[[record]]
binder = "NeuB2-40 (antibody, V domains shown, also called Ab40; 40-HC/40-LC) VH: QVQLVQSGAEVKKPGASVKVSCKASGYTFTNYGISWVRQAPGQGLEWMGWISGDAGDTKFAQKFQGRVTMTTDTSTTTTYMELRSLRSDDTAVYYCARDGEYIPMFRGFDNYYGLDVWGQGTTVTVSS VL: QPVLTQPPSVSEAPRQRVTISCSGSSSNIGKNAVNWYQQFPGKAPKLLIYYDDLLPSGVSDRFSGSRSGTSASLAISGLQSEDEADYYCAAWDDRLKGYVFGTGTQLTVL"
obs_value = 0.276

